Exercise: for every item that follows, state its recorded IC50.
tested on: HepG2 tumor cells; experiment: In vitro tumor cell proliferation inhibition test (CCK-8), HepG2; type: cell-based; conditions: Homo sapiens, HepG2, 76 hours incubation
Numbered stars: 1 amine (or outer) side, 2 acyl side, 3 side chain; on linkers, the order of the positions; unused ones are H or OH. Square brackets hold non-standard residues; d marks the D form. Peptide text beside a SMILES is read from it. X1 = CO[C@H]([C@@H](C)C(=O)[*:2])[C@@H]1C[C@@H]2C[C@@H]2N1[*:1]; X3 = CO[C@H]([C@@H](C)C(=O)[*:2])[C@@H]1CC[C@H](C)N1[*:1]; Dil = CC[C@H](C)[C@H](NC)[C@@H](CC(=O)O)OC; Phe(4-Me) = Cc1ccc(C[C@H](N)C(=O)O)cc1; NMeV = CN[C@H](C(=O)O)C(C)C
One number for each entry, in nM.

Molecule	System Name	Unit Abbreviation	Observed
CC[C@H](C)[C@@H]([C@@H](CC(=O)N1[C@H]2C[C@H]2C[C@H]1[C@H](OC)[C@@H](C)C(=O)N[C@@H](Cc1ccc(C)cc1)C(=O)O)OC)N(C)C(=O)[C@@H](NC(=O)[C@@H](NC)C(C)C)C(C)C [Compound 15] (H-[NMeV]V[Dil][X1][Phe(4-Me)]-OH)	HepG2 tumor cells	nM	47.5

Now look at this entry.
[Q] Quick one: give measured IC50 for CC[C@H](C)[C@@H]([C@@H](CC(=O)N1[C@@H](C)CC[C@H]1[C@H](OC)[C@@H](C)C(=O)N[C@@H](Cc1ccccc1)C(=O)O)OC)N(C)C(=O)[C@@H](NC(=O)[C@@H](NC)C(C)C)C(C)C [Compound 3] (H-[NMeV]V[Dil][X3]F-OH)
[A] 9.33
